What % Inhibition was measured for each of the following?
# Test system: human SMAD7 mRNA
# measurement.notes: Antisense inhibition of human SMAD7 mRNA expression in Hep3B cells by 3-10-3 cEt gapmers, 10,000 nM, electroporation (Example 2)
# Format: cell-based
# applied.conditions: Hep3B cells, electroporation with 10,000 nM antisense oligonucleotide, approximately 24 hours, SMAD7 mRNA by RT-PCR (RTS5062), relative to untreated control cells
# Description: Antisense oligonucleotides were designed to target human SMAD7 mRNA and were tested for their effects on SMAD7 mRNA expression in vitro. […] After a treatment period of approximately 24 hours, RNA was isolated from the cells and SMAD7 mRNA levels were measured by quantitative real-time PCR. […] SMAD7 mRNA levels were adjusted according to total RNA content, as measured by RIBOGREEN®. […]
Strand notation (5' to 3'): a small letter for the sugar, then the base; units joined by * are phosphorothioate-linked, units joined directly phosphodiester-linked; [ ] holds rarer units or linkages, { } end groups; capitals alone tell only the bases. k = constrained ethyl (cEt); [5mC] = 5-methylcytosine; d = 2'-deoxy (DNA)
Answers are plain numbers, in %.

List % Inhibition for every entry below, keeping the order given.
1. 798867 (kT*kT*kG*dT*dG*dT*dA*d[5mC]*d[5mC]*dA*dA*d[5mC]*dA*kG*k[5mC]*kG; antisense) [compound 798867]
2. 772563 (antisense kG*kG*k[5mC]*d[5mC]*dA*d[5mC]*d[5mC]*dT*dG*dA*dA*d[5mC]*dA*k[5mC]*kT*kT) [compound 772563]
3. 830088 (kG*kT*kT*dT*dT*dA*d[5mC]*dA*dG*dG*dA*dT*dA*k[5mC]*kA*k[5mC]; antisense) [compound 830088]

29
0
52

Entry 830124 (antisense k[5mC]*k[5mC]*kG*dA*dG*dG*d[5mC]*dA*d[5mC]*d[5mC]*dA*d[5mC]*dA*kT*kT*kT) [compound 830124] , % Inhibition reported as 27
